Tested on: Jurkat cells
Experiment: Sirolimus (rapamycin) dose response of FKBP13 constructs stably transduced into Jurkat cells, flow cytometry
Assay type: cell-based
Conditions: rapamycin; Table 14; read-out: Rapamycin EC90
observed_property: EC90 (nM)
Numbers only, in nM.

As a guide, the following entries are already answered.
molecule="FKBP-166 (protein, Description of sequence: Construct Name: FKBP-166; Mutation(s): Q72R S79W Q84E A117W DRD M54A V85R) HCPIKSRKGDVLHAHYTGKLEDGTEFDSSLPRNQPFVFWLGTGERIKGWDQGLLGMCEGEKRKLVIPSELGYGERGWPPKIPGGATLVFEVELLKIER" measured_number=1640
molecule="FKBP-172 (protein, Description of sequence: Construct Name: FKBP-172; Mutation(s): Q72R Q84E A117W DRD M54A M96W) HCPIKSRKGDVLHAHYTGKLEDGTEFDSSLPRNQPFVFSLGTGEVIKGWDQGLLGWCEGEKRKLVIPSELGYGERGWPPKIPGGATLVFEVELLKIER" measured_number=2140
molecule="FKBP-171 (protein, Description of sequence: Construct Name: FKBP-171; Mutation(s): Q72R Q84E A117W DRD M54A D50L) HCPIKSRKGLVLHAHYTGKLEDGTEFDSSLPRNQPFVFSLGTGEVIKGWDQGLLGMCEGEKRKLVIPSELGYGERGWPPKIPGGATLVFEVELLKIER" measured_number=16000
molecule="FKBP-177 (protein, Description of sequence: Construct Name: FKBP-177; Mutation(s): Q72R Q84E A117W DRD M54AL80G) HCPIKSRKGDVLHAHYTGKLEDGTEFDSSLPRNQPFVFSGGTGEVIKGWDQGLLGMCEGEKRKLVIPSELGYGERGWPPKIPGGATLVFEVELLKIER" measured_number=5280

Query :: Requested read-out: EC90. Entry: FKBP-155: FKBP13 DRD Q72R, S79W, Q84R, A117W, M54A; SEQ ID NO: 105 (protein, Description of sequence: FKBP13-AcGFP-mCherry Fusion; Construct Name: FKBP-155; FKBP13 DRD in Construct : FKBP13 (mutated to match FKBP12 active site Q72R S79W Q84R A117W) (DRD M54A)) HCPIKSRKGDVLHAHYTGKLEDGTEFDSSLPRNQPFVFWLGTGRVIKGWDQGLLGMCEGEKRKLVIPSELGYGERGWPPKIPGGATLVFEVELLKIER
Result :: 1140
